- system: EPHB1 (UniProt P54762)
- Sequence (P54762 whole entry, looked up): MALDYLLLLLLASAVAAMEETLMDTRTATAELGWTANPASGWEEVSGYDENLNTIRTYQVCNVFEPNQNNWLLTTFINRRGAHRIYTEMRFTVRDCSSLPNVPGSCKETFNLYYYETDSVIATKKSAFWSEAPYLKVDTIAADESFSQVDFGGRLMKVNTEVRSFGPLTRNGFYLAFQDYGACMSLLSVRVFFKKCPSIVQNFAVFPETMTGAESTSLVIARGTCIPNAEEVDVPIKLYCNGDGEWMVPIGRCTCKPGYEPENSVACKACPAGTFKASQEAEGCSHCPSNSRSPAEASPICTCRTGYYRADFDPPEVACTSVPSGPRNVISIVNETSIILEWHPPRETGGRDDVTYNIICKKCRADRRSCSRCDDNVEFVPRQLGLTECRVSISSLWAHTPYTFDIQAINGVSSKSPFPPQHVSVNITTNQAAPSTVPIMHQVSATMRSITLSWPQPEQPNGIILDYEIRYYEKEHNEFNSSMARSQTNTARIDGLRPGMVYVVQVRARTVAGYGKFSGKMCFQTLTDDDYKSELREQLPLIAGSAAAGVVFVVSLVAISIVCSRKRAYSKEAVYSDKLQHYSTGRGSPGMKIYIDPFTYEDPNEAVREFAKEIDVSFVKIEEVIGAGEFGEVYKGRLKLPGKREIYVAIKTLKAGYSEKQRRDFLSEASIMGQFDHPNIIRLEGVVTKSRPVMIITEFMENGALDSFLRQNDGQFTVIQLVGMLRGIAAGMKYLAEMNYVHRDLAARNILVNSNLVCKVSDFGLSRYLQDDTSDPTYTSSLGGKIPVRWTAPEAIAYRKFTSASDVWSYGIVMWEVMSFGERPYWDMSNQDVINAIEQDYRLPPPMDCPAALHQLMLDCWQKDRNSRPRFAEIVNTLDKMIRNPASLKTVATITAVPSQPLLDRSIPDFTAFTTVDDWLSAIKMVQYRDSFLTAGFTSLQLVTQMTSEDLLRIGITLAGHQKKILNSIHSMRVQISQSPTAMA
- measurementNotes: phosphorylation enrichment, bacterial display (enrichment ratio); higher = better substrate or ligand; peptides without Tyr show the background;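 further: 11-residue human phosphosite peptides and single-mutation variants displayed on the E. coli surface, counted by deep sequencing, each peptide's frequency after selection divided by its frequency in the unselected input library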;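 further: frequency after pTyr selection over input frequency; kinase dosed for 20-30% of maximal phosphorylation in three min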
# phosphorylation enrichment >= 0.6 gives YES, anything below gives NO

{"columns": ["residueCodes", "assignedClass"],
 "data": [
  ["VKPRRYRPGTV [H3-5_Y41_H39R]", "NO"],
  ["FQCKHYACIRQ [TIMP3_Y182_S179C_YF]", "NO"],
  ["EQKKYYNAMKK [SCN5A_Y1495]", "NO"],
  ["PMQLPYDSTWE [PDGFRB_Y589]", "NO"],
  ["PTQLPYDHKWE [KIT_Y578]", "YES"],
  ["LTTPTYGDLNH [TUBB_Y222]", "YES"]
]}

----------
- system: FGFR1 (UniProt P11362)
- Sequence (P11362 whole entry, looked up): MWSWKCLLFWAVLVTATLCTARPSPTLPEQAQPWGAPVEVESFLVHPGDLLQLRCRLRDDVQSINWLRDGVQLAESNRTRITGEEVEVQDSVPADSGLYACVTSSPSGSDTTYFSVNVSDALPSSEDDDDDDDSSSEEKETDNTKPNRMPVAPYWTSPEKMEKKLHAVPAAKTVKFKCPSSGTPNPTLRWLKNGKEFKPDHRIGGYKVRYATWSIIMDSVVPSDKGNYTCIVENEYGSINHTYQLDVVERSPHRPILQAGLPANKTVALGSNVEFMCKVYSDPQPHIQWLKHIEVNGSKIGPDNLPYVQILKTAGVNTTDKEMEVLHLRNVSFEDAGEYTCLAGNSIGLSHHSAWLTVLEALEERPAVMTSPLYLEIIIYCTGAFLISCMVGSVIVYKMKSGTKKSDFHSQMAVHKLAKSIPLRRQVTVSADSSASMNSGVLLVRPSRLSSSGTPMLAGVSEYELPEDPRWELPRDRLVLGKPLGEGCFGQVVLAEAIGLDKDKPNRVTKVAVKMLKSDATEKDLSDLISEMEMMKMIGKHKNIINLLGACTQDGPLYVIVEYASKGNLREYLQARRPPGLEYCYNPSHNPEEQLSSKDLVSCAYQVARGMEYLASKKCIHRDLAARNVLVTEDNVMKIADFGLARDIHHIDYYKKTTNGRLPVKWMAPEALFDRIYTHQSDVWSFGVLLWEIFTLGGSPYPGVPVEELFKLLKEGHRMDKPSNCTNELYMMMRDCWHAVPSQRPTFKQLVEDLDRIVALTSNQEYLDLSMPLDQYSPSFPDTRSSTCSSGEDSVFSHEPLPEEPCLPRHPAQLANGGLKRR
- measurementNotes: phosphorylation enrichment, bacterial display (enrichment ratio); higher = better substrate or ligand; peptides without Tyr show the background

{"columns": ["residueCodes", "phosphorylation enrichment"],
 "data": [
  ["FNSLLYQVPTS [CALCOCO2_Y358_P357L]", 1.17],
  ["VIKSSYQVAKA [CPT1B_Y534_E531K]", 0.391],
  ["MEKEKYVSFIS [JMJD1C_Y596_YF]", 0.434],
  ["YECKWYIPLTD [BCR_Y756_D752E]", 0.812],
  ["QPTPGYEVGQR [TSC2_Y1788_E1783Q]", 0.609],
  ["VVKLAYNENDN [CAMKK2_Y183]", 0.518],
  ["ACCLLYRGDVV [TUBA4A_Y319]", 3.27],
  ["RVGNMYMRGLS [ABCG8_Y209_V210M]", 0.704],
  ["VGTKRYVAPEV [ACVRL1_Y375_M376V]", 0.332],
  ["FMMMRYSQNIR [SDAD1_Y656_V660I]", 0.663],
  ["ADEDIYGVLPA [LYNtide_2014]", 0.606],
  ["MSSLYYANALF [HOXB7_Y6_T9A]", 5.32],
  ["NYAKMYCNPDA [KNL1_Y489]", 0.561],
  ["EFSNQYKATIG [RAB7A_Y37_K32E]", 0.405],
  ["ANRNVYEVEPT [MEGF10_Y1075]", 0.404],
  ["LDTIQYSKHPP [SQSTM1_Y433]", 0.6],
  ["ILNANYMAKRL [GLDC_Y839]", 0.368],
  ["RLLRGYDQLAY [HLA-C_Y137_S140L]", 0.65],
  ["PFSEPYADFGG [APBA1_Y187_YF]", 1],
  ["FKPENYRRLDI [VHL_Y175_V170F]", 0.414],
  ["EIEFLYNENTV [IARS1_Y680]", 0.645],
  ["NSRYTYKLEVK [USH2A_Y3747]", 0.427],
  ["PMQLPYDSTWE [PDGFRB_Y589]", 0.438],
  ["QSRSPYSSRHS [CDK13_Y415_R410Q]", 0.558],
  ["CTTIHYNFMWN [TP53_Y234_C238W_YF]", 0.621],
  ["QRIFQYIRSRF [DYRK1B_Y273_Q275R_YF]", 0.75],
  ["YLRTGYSVPYG [TGM1_Y370]", 0.495],
  ["SIKDKYVTAVY [KCNH2_Y611_L615V]", 0.498],
  ["SVMAEYGLFRA [VSX2_Y219_G223R_YF]", 0.514]
]}
